- Test system: Saccharomyces cerevisiae
- measurement description: transcriptional activation domain activity (GFP:mCherry ratio, weighted mean of sorted bins, harmonized to initial dataset scale) (arbitrary fluorescence ratio units); higher = stronger transcriptional activation
- details: beta-estradiol 1 µM; induction time 4 h
reported property: transcriptional activation domain activity
# answer = number (no unit)

Form field: reported transcriptional activation domain activity of DKPKTKPAAAKAKPKSATTKAKPASKASAKPSSKAGAKKPASKKATAAAAAKK
12000

Request: KEEEDRKRAEEEEERERERRRQDEVDRRRRMQDEAKQREAEAKKQAARAAALA
35500

Request: LYMLKIVNWAVLYASLILATLLWCTIFIIYRILKVGGVTAGMRAYHRVIELLV
83500

Request: VNDNSTGSTDSTGSTGNKNKKNNNNSDDVLPFISESPFDMNQVTNFFSPGSTG
38600

Request: ALSSASSALSPLSGDPITTTETNKSYPLDSEQSLLEPDKTEEDAINQSKESNM
15300

Request: MGGVVWCFYRVFLFPFLLSPIIPSLLLSSLHTFPLSLTFTFTFILCRMFYVCT
53500

Request: PVLEQKRCIRAMEEMIILCKEYIRIARPQISACLISALSFDELRATAFSCWVA
48700

Request: ILKRNMYFIIPLLLLLLGTVALAIYDTIWLLMRTYARGHLSHSHRFWSLLFYS
55700

Request: APAAEPVAAATIEEAPKETAEASTATEETAEEKKEEKEKKEKEKKAKLGRRLS
30700

Request: AINTAKAEIDGVREIMTENIERVLERGEHMSVLVDKTGRLGENARDFRVRSRT
29100

Request: LGVFGVALYVLSFFENFDSCHWCFHYDLWSPMAYILMRYSIEAILWSSRLALF
70600

Request: MLNLSYPFVLFILVPLILIPTCFCPFFVGPSYMSFCLSWLLPLFSFLPLLMLM
50300

Request: MCTLKLLVLLRIYFPTYISFPFFSPSLLSKCHSFISFSYVPWSLVTFLIYLPS
75600

Request: MFVHWAAVFCLFFFCLAIIHPYLPVAFFFCSIYYKPFFLRLPRFLFGFWFFFS
47700

Request: ITFLFIFFFYFFTYSFFYISFFRTCFPEFAHQMFEMVLLWNLFLLFVFCLFFF
57600

Request: QAARTSDYSIAQFRFLLKLLLVHGRWNYVRICKYTLGTFWKEMLFYSVQALYQ
15400

Request: EDASAGEGEEKKKRKKKKVEASSDEEGSGSDGSKRKSQSKRTKSSKKGRSDNG
40700

Request: RLAGGLRGLTGLEKEELRKRGWGLGWWMMRGAFYENITKAWIHTVTRKLKNKP
47300

Request: KSKKRSRVDEEDEEEYGASSSKAKAKKDKEKPAKKAAAKGKEKAAKGKASAKG
26200

Request: MMSDSGQDEKTLPQADKNGTSQVAVPLEATEASEQALLRRLLRKTDLLVMPGL
24200

###

- System: Saccharomyces cerevisiae
- measurement description: transcriptional activation domain activity (GFP:mCherry ratio, weighted mean of sorted bins, harmonized to initial dataset scale) (arbitrary fluorescence ratio units); higher = stronger transcriptional activation
- details: beta-estradiol 1 µM; induction time 4 h
Respond with 1 for transcriptional activation domain activity values of 50000 and above, -1 for values below.

Item MRILFTICRYFPLLFYPFYLWAWVPVHSKELCEKLICPFGQYLCILILLCACW with transcriptional activation domain activity of 50000 or above?
1

Request: MSFLGLSFFAYLLGVGWILLFCLSFGLPQPLSFITWDCLTRGGFFFLLYFFCF
-1

Request: MCCAECCLSSLVSFVSFFSRSLHSLTIRGFFLFPGTFHVILFLFFRFFIFFFH
-1

Request: MKELSFFPISISIQRYSHIRWVLLHCTNYLISFVYHCYVIILSVFFFLYIFTA
1

Request: GKKRRRSSSSSSSSSGSSSSGSSSSSGSDSESDSSSDSSSSSSNSSRSSGSRS
-1

Request: ANRCSFFALEFSVGISWSTVGADFYVYYPTNTSKRLTFFMTWAGLWISLIFVN
-1

###

- Tested on: Saccharomyces cerevisiae
- measurement description: transcriptional activation domain activity (GFP:mCherry ratio, weighted mean of sorted bins, harmonized to initial dataset scale) (arbitrary fluorescence ratio units); higher = stronger transcriptional activation
- details: beta-estradiol 1 µM; induction time 4 h
Respond with yes (1) for transcriptional activation domain activity values of 30000 and above, no (0) for values below.

Item RRRKSNSTKPGNAGSKPAKKNKGANSNERERESKEVDEDEDEGNGGGEGEGEE with transcriptional activation domain activity of 30000 or above?
no (0)

Request: MIVVVLCLPSALTHLGCLFYHDPSSPFALVTFSVSLIIILPNLGVILFGFFNI
yes (1)

Request: VAVAREPFQEGADASGKLYNKDSLDDEDSRKYVVILNAFLQMLAALDELVLVL
yes (1)

Request: MMGLRELHAASREFAMLFWREPRLDLALFLLLFLFFFVLFLFFCLFFFFCLVF
no (0)

Request: ASSYAVQHTRKKGRGGGGGEAGNKPANKAARSWDKNAELHGTQGKMHVTIAVT
yes (1)

Request: MFVCTSQSFIRSMGLYGFYLTGLMMTLLVVVVSLTFIQYPTIVILTLFHCLIS
yes (1)

Request: TIIGLTSAVLLPVVVFIPYIPCWLFLYLVNLLFPLIFICFTGKVIQLTFLYYS
yes (1)

Request: MIISAVYITYFFSLSYLFFPLYLFIVYPFFSFLFNLLAKDTFIVDTYIIVFFA
yes (1)

Request: MAEKRATSTAPGPSTSLQRGKACLRCRKRKMRCDGSKPACQQCVRAKKADGCE
no (0)

Request: SSSSQTSTSASVLLVFGSDERYVKAAGDLLKSRLNVKGGGKGTRWSGKYTGVW
yes (1)

Request: FGAIFVELYFIMSSIWFSKIYYMFGFLFLCYGLMILTCATVTILMVYFLLCAE
yes (1)

Request: AINVSFLHWIYIFHATGKHKYASQLARYLKNLHEVHPPELSQWLIEVFRKCHI
yes (1)

Request: IGWFFPFWIVLLLPLDMASSLYEGCDMLCRRPFTWVSQSFLYIAWRTIYWTSF
yes (1)

Request: CDTGILLCLVCYLSSKVLLYFFLVEKVHVIRGNNDSRWKDKLFVFNCFGMMLP
yes (1)

Request: MTSWPLLPPYSIHAMIKMIAFSSLFCSFFSLHLFFYYYLPLYIAVFIFFIVTH
yes (1)

Request: EDSEEKPRKKTPRKAAASKPKSKGKKKADSDSGEESDAEPRAKKSATKGKGKK
no (0)

Request: HLSLSPSLIPTLSFFLLLLYPLVFFIFIIYRGPLFFLFDLTHLICFIYILFIL
no (0)

Request: RVVLRCLFLAYECIEEADVKSTLSYTIEVAFNLITSTCDYIGPVAMSHALRAG
yes (1)

Request: IILRIVGAPNWIQFWSLGRNQVDLLLVISTCVIQLPMIQNLDIYKYLTIFQVF
yes (1)

Request: QGRTLDVTRAVSRDRAEKLRETGERTRERKDKRNLYLMREGVIFVSTPSASTL
yes (1)

Request: HHFVCAFYFQDSWGLGLMKRLLIVVCLLLATYVFPLPLTSPPWSFIWKQSWVI
yes (1)

Request: MLWLVSWWLCLVVSNTLLFYLGEGGLVCFILCNSSFQVYLFLDLFIFLLFIHS
yes (1)

Request: HKWIIPTPFASHAFHPVDGYLQSVPYHLFVFIFPLHRILYLVLFVLINFWTIF
yes (1)

Request: FFHVTVRVASQGCGLAFGIHGFENTDVFLAYLILGAEGYFTLVLCTFRFLVSW
yes (1)

Request: RKKSALEEEERKEKENDELEKKGKRKEEKEEKRRRGKGEKKGKEIRKEKEEKE
no (0)

Request: VHLTLNLGTYLRVISIGKPFPMWLDYWYNYGYILYCAILQLYELWQIVILIWL
yes (1)

Request: MNLDTSPDFVHFFLGFTGGVSILDLYCLFMYTFFDMIQLQLNPFSDFFFPFSL
yes (1)

Request: MDDALSVKSNDDGTYDVAVHIADVSYFVKPNTALDRDARKRATSVYLIQRAVP
no (0)

Request: ASDKQETSSQPEGGKEKEAAKEEKKPEPKKEEPKQESKPAPAPKQEKKPEPKK
yes (1)

Request: MEVGSAAVAGPVLAAAHVPRKRRRPALSCEQCRKRKVKCDRTSPCGQCTRSKG
yes (1)

Request: IIFLIMRAMVGLQVLNENVIEKILMYLKLQWVAVFIYWQVLWLVKFSLLIFFK
yes (1)

Request: MMAEGERPLATMCSVLSVCYVCVRLVLSNLIWIVLCSSPRPLPMALLSLLAHR
yes (1)

Reference for the values: the supplement of paper PMC12636428
